// endpoint IC50 / system His-EBNA1 (DNA binding domain of EBNA1, amino acids 459-607) (Epstein-Barr virus)

Incoming: Item Cn1cc(C#Cc2cccc(C(=O)O)c2-n2cccc2)cn1 has what recorded IC50?
Outgoing: 1 to 10 µM

Incoming: Try COc1ccc(C#Cc2cccc(C(=O)O)c2-c2ccc3cc[nH]c3c2)cc1 next.
Outgoing: 1 to 10 µM

Incoming: Try O=C(O)c1cccc(C#Cc2ccccc2)c1N1CCNCC1 next.
Outgoing: 10 to 100 µM

Incoming: Try CC(C)C(O)C#Cc1cccc(C(=O)O)c1-n1cccc1 (stereo not drawn) next.
Outgoing: 1 to 10 µM

Incoming: Try O=C(O)c1cccc(C#Cc2ccccc2)c1C1CC1 next.
Outgoing: 1 to 10 µM

Incoming: Try CC(C)(C)C#Cc1cccc(C(=O)O)c1-n1cccc1 next.
Outgoing: 1 to 10 µM

These data points were gathered from patent US10421718B2.
